System: MS2 coat protein
experimental_protocol: apparent KD of MS2 coat protein; designed switch direction (-1 OFF switch, 1 ON switch): -1; higher = weaker reporter binding
study_conditions: input ligand: none
Recorded apparent KD of MS2 coat protein, one value per entry.

Consider the worked cases shown below.
GCAGCAUAGAUGAAAAUCUGAUACAUGAGGAUCACCCAUGUUCAGGAUAUGGUCUGGAUUACAGGCCAGAAGGGAACAAGCUGC [Eli exng3 - 011] (Eterna round: R96, puzzle: Exclusion NG 3)    12 nM
CGCAAUGGAGGAUAUACAUGAGGAUCACCCAUGUGGUCCUUGAGAUUCCAAAAGUCAAGUAGAAGGUCAGCGGC [Eternabot (L1) Solution 45] (Eterna round: R97, puzzle: Exclusion 3)    1600 nM
ACUCAGUGAGGAUAUCGCCAAAGAGCCGUAACGGCCUUUGAUGAGAAGGCACAUGAGGAUCACCCAUGUAAGCA [EX4 C.1] (Eterna round: R97, puzzle: Exclusion 4)    122 nM
UAUAAACAUGAGGAUCACCCAUGUGAGGAUAUCAAAACCAGAGCGGAUCUCUGGCCCAUGAGAAGGUGCAUGGU [ElNandoxlusion 8 - Jieux - Exclusion 1] (Eterna round: R97, puzzle: Exclusion 1)    26.2 nM
AAGUCAGCAGGAUAUGCGAUGUUGGGCUAGGUAGCGUGACCACAUGAGGAUCACCCAUGUAGAAGGGCUGGCUA [EX2 Malc#36] (Eterna round: R96, puzzle: Exclusion 2)    29.7 nM
UCGUUCCGUGUAGGAUAUUGGCCUCCCUUGGGCCGAGAAGGACAUGAGGAUCACCCAUGUAUGUUAUUAUCGCGCGUGGCGCAU [Design 88] (Eterna round: R96, puzzle: Exclusion NG 1)    18.4 nM
AAAGUGUGAGGAUAUUAGUUGUACGUCAAUAGACGUAUAAGUGAGAAGGCACAUGAGGAUCACCCAUGUUCCUG [Omei Ex4 Mod of Mat's R95 mod of Omei v5] (Eterna round: R97, puzzle: Exclusion 4)    21.9 nM
GGGAAGAACCAACAAGUUAACAUGAGGAUCACCCAUGUUGACUUCAUGUGCACGCAAAGCGUGCAAGCUCGUCUUAU [AK-miRNA-r3-15] (Eterna round: R97, puzzle: Sensor, turn-off variant 1)    17.2 nM

Then this sequence:
Entry CUAAAUCAUGUAGGAUAUGCAUAGCGAAGCUAUGCAGAAGGACAUGAGGAUCACCCAUGUUCUUCCGUCUGCGUACAGACGGAA [Mat - Exclusion NG 1 - Mod of JL - D30] (Eterna round: R96, puzzle: Exclusion NG 1) has what apparent KD of MS2 coat protein? 33.5 nM

----------
Test system: MS2 coat protein
experimental_protocol: apparent KD of MS2 coat protein; designed switch direction (-1 OFF switch, 1 ON switch): 1; higher = weaker reporter binding
study_conditions: input ligand: FMN 200 uM
List of apparent KD of MS2 coat protein values.
Reply numerically in nM, unit not repeated.

AUUAUUUAUGCAGGAUAUGAUUAACAUGAGGAUCACCCAUGUGGUGUUGUGAGUAAGGAGAGUGAUCAGAAGGGCAUUUUUUUU [JMF's solution 22] (Eterna round: R96, puzzle: Same State NG 2)    673

Request: apparent KD of MS2 coat protein, test system MS2 coat protein, entry CGUAGGUAGCUGGAGGAUAUUCGAGUGGUAACAUGAGGAUCACCCAUGUGGUGAGAGGAACAUGAGGAGAAGGCUAGCUGCCUGC [JL-ss2-3.15 JL mod] (Eterna round: R96, puzzle: Same State 2) 1290

What do we get for GGUAUCGGCACAGGAUAUGCUAUCCUUUGGGUAGCAGAAGGGUGGACAUGAGGAUCACCCAUGUAGGUGCCAGGGCGUGAGCCC [JL SSNG1 1.87] (Eterna round: R96, puzzle: Same State NG 1) ? 2490

What would you report for GCUAGAAAUAAAGCCAACAUGAGGAUCACCCAUGUAUGUUGGUAGGAUAUCGUAUGCAAAGCAUACGAGAAGGGCUAAACUAGC [Mat - Same State NG 3 - JL Mod - D18] (Eterna round: R96, puzzle: Same State NG 3) ? 91.6

Do the same for UAAGUAUGUUGAGGAUAUUAUGUUUAGUGUGAUGACAUGAGGAUCACCCAUGUGUUAUGAGUUUUUAAGAAGGCAACAUACUUA [JR_SSNG2_Sub091] (Eterna round: R96, puzzle: Same State NG 2) please 35.1

Entry to check: AUUAUUAAUGCAGGAUAUGAUUAACAUGAGGAUCACCCAUGUGGUGUUGUGAGUAAGGAGAGUGAUCAGAAGGGCAUUUUUUUA [JMF's solution 18] (Eterna round: R96, puzzle: Same State NG 2) 653

UAGUGCAUUAGAGGAUAUUCUUACGACACGAGUAAGACAUGAGGAUCACCCAUGUCGUGACAUGGGAAGAAGGCUGAUGUGCUA [Omei SS(NG)2 Bv6] (Eterna round: R96, puzzle: Same State NG 2) , same question. 12

Next sequence up: UUGCUUCUCGUAGGAUAUGUAGGAUAUGCCUACAUGAGGAUCACCCAUGUUCGCAUGGCAGAAGGACAGAAGGACGAUCACCCU [pwkr ssNG2 2FMN + 1F5.8] (Eterna round: R96, puzzle: Same State NG 2) 43.5

How about UUAAUUUACUGAGGAUAUCGUGUCGACUGAGUUGACAUGAGGAUCACCCAUGUGAGAAGUGGUAUCGAGAAGGCAGUUUUCAUA [JR_SSNG2_Sub024] (Eterna round: R96, puzzle: Same State NG 2) ? 17.2
